Test system: Escherichia coli UB1005
outcome measure: MIC

[[record]]
molecule_smiles = "CC[C@H](C)[C@H](N)C(=O)N[C@@H](CCCN=C(N)N)C(=O)N[C@H](C(=O)N[C@@H](CCCN=C(N)N)C(=O)N[C@H](C(=O)N[C@@H](CCCN=C(N)N)C(=O)N1CCC[C@H]1C(=O)N[C@H](C(=O)N[C@@H](CCCN=C(N)N)C(=O)N[C@H](C(=O)N[C@@H](CCCN=C(N)N)C(=O)N[C@H](C(=O)N[C@@H](CCCN=C(N)N)C(=O)N1CCC[C@H]1C(=O)O)[C@@H](C)CC)[C@@H](C)CC)[C@@H](C)CC)[C@@H](C)CC)[C@@H](C)CC"
outcome_measure = "MIC"
result = "8 µM"


---

Test system: Escherichia coli
Experiment: ≥ marks a high value that may be exact or a test limit, other limits are often not marked, values filed in µg/mL are converted to µM
Entries annotated with measured MIC
outcome measure: MIC (µM)

[[record]]
compound = "CC(C)C[C@H](NC(=O)[C@H](CC(C)C)NC(=O)[C@H](C)NC(=O)[C@H](CCCCN)NC(=O)[C@H](C)NC(=O)[C@H](C)NC(=O)[C@H](C)NC(=O)[C@H](CC(C)C)NC(=O)[C@H](Cc1c[nH]c2ccccc12)NC(=O)[C@H](CCCCN)NC(=O)[C@H](C)NC(=O)[C@H](CC(C)C)NC(=O)[C@H](CC(C)C)NC(=O)[C@H](CCCCN)NC(=O)[C@H](CCCCN)NC(=O)[C@H](CC(C)C)NC(=O)[C@H](C)NC(=O)[C@@H](N)CCCCN)C(N)=O [KALKKLLAKWLAAAKALL]"
outcome_measure = "MIC"
censor_symbol = "="
numeric_result = 6.1

[[record]]
compound = "CC[C@H](C)[C@H](NC(=O)[C@H](CO)NC(=O)[C@H](CO)NC(=O)[C@H](C)NC(=O)[C@@H](NC(=O)[C@H](Cc1cnc[nH]1)NC(=O)CNC(=O)[C@H](C)NC(=O)[C@@H](NC(=O)[C@H](CCCCN)NC(=O)[C@H](CCCCN)NC(=O)[C@@H](NC(=O)[C@@H](NC(=O)[C@H](CC(=O)O)NC(=O)[C@H](Cc1ccccc1)NC(=O)[C@H](CC(C)C)NC(=O)CN)[C@@H](C)CC)C(C)C)[C@@H](C)CC)[C@@H](C)CC)C(N)=O [GLFDIVKKIAGHIASSI]"
outcome_measure = "MIC"
censor_symbol = ">"
numeric_result = 56.5


---

Test system: Pseudomonas aeruginosa H103
Assay: ≥ marks a high value that may be exact or a test limit, other limits are often not marked, values filed in µg/mL are converted to µM
outcome measure: MIC (µM)

[[record]]
molecule_smiles = "CC[C@H](C)[C@H](NC(=O)[C@H](CC(C)C)NC(=O)[C@H](CCSC)NC(=O)[C@H](CCCN=C(N)N)NC(=O)[C@H](Cc1c[nH]c2ccccc12)NC(=O)[C@H](Cc1c[nH]c2ccccc12)NC(=O)[C@H](CCCCN)NC(=O)[C@H](Cc1ccccc1)NC(=O)[C@@H](N)CCCCN)C(=O)O"
study_system = "Pseudomonas aeruginosa H103"
outcome_measure = "MIC"
censor_symbol = "="
numeric_result = 4.6

[[record]]
molecule_smiles = "CC[C@H](C)[C@H](N)C(=O)N[C@@H](CCCN=C(N)N)C(=O)N[C@@H](CCSC)C(=O)N[C@@H](CCCN=C(N)N)C(=O)N[C@H](C(=O)N[C@@H](CCCN=C(N)N)C(=O)N[C@H](C(=O)N[C@@H](CC(C)C)C(=O)N[C@@H](CC(C)C)C(=O)O)C(C)C)[C@@H](C)CC"
study_system = "Pseudomonas aeruginosa H103"
outcome_measure = "MIC"
censor_symbol = "="
numeric_result = 16

[[record]]
molecule_smiles = "NCCCC[C@H](NC(=O)[C@@H](N)CCCCN)C(=O)N[C@@H](CCCN=C(N)N)C(=O)N[C@@H](Cc1c[nH]c2ccccc12)C(=O)N[C@@H](Cc1c[nH]c2ccccc12)C(=O)N[C@@H](Cc1c[nH]c2ccccc12)C(=O)N[C@@H](Cc1c[nH]c2ccccc12)C(=O)N[C@@H](Cc1c[nH]c2ccccc12)C(=O)N[C@@H](CCCN=C(N)N)C(=O)O"
study_system = "Pseudomonas aeruginosa H103"
outcome_measure = "MIC"
censor_symbol = "="
numeric_result = 2.64

[[record]]
molecule_smiles = "NCCCC[C@H](NC(=O)[C@H](Cc1c[nH]c2ccccc12)NC(=O)[C@@H](N)CCCCN)C(=O)N[C@@H](CCCN=C(N)N)C(=O)N[C@@H](Cc1c[nH]c2ccccc12)C(=O)N[C@@H](Cc1c[nH]c2ccccc12)C(=O)N[C@@H](Cc1c[nH]c2ccccc12)C(=O)N[C@@H](Cc1ccccc1)C(=O)N[C@@H](CCCN=C(N)N)C(=O)O"
study_system = "Pseudomonas aeruginosa H103"
outcome_measure = "MIC"
censor_symbol = "="
numeric_result = 21.6

[[record]]
molecule_smiles = "CC[C@H](C)[C@H](NC(=O)[C@@H](N)CCCN=C(N)N)C(=O)N[C@@H](Cc1c[nH]c2ccccc12)C(=O)N[C@@H](CCCCN)C(=O)N[C@@H](CCCN=C(N)N)C(=O)N[C@@H](Cc1c[nH]c2ccccc12)C(=O)N[C@@H](Cc1c[nH]c2ccccc12)C(=O)N[C@@H](Cc1ccccc1)C(=O)N[C@@H](CCCN=C(N)N)C(=O)O"
study_system = "Pseudomonas aeruginosa H103"
outcome_measure = "MIC"
censor_symbol = "≥"
numeric_result = 89.3


---

# collection of MIC values tested on Enterococcus faecium
outcome measure: MIC (µM)

[[record]]
molecule_smiles = "CC[C@H](C)[C@H](NC(=O)[C@H](CS)NC(=O)[C@H](CC(N)=O)NC(=O)[C@H](C)NC(=O)[C@H](C)N)C(=O)N[C@H](C(=O)N[C@@H](CC(C)C)C(=O)NCC(=O)N[C@@H](CCCCN)C(=O)N[C@@H](C)C(N)=O)[C@@H](C)O"
study_system = "Enterococcus faecium"
outcome_measure = "MIC"
numeric_result = 30

[[record]]
molecule_smiles = "CC[C@H](C)[C@H](NC(=O)[C@H](CC(C)C)NC(=O)[C@H](CCCN=C(N)N)NC(=O)[C@@H](NC(=O)[C@H](C)NC(=O)[C@H](CCCCN)NC(=O)[C@H](CC(C)C)NC(=O)[C@H](CC(C)C)NC(=O)[C@@H](N)CCC(=O)O)C(C)C)C(=O)N[C@@H](CCCCN)C(=O)O"
study_system = "Enterococcus faecium"
outcome_measure = "MIC"
numeric_result = 10

[[record]]
molecule_smiles = "CC[C@H](C)[C@H](NC(=O)CN)C(=O)N[C@@H](CC(C)C)C(=O)NCC(=O)N[C@@H](CCCCN)C(=O)N[C@@H](CC(C)C)C(=O)N[C@@H](Cc1c[nH]c2ccccc12)C(=O)N[C@@H](CCC(=O)O)C(=O)NCC(=O)N[C@H](C(=O)N[C@@H](CCCCN)C(=O)N[C@@H](CO)C(=O)N[C@H](C(=O)N[C@@H](Cc1ccccc1)C(N)=O)[C@@H](C)CC)C(C)C"
study_system = "Enterococcus faecium"
outcome_measure = "MIC"
numeric_result = 8.08

[[record]]
molecule_smiles = "CC[C@H](C)[C@H](NC(=O)[C@H](C)N)C(=O)N[C@@H](CCCN=C(N)N)C(=O)N[C@@H](CS)C(=O)N[C@@H](CC(C)C)C(=O)N[C@@H](C)C(=O)N[C@@H](CCCCN)C(=O)N[C@@H](CCCN=C(N)N)C(=O)N[C@@H](CCCN=C(N)N)C(=O)N[C@@H](CCCCN)C(N)=O"
study_system = "Enterococcus faecium"
outcome_measure = "MIC"
numeric_result = 3.8

[[record]]
molecule_smiles = "CC[C@H](C)[C@H](NC(=O)[C@H](CS)NC(=O)[C@H](Cc1cnc[nH]1)NC(=O)[C@H](C)NC(=O)[C@H](C)N)C(=O)N[C@@H](C)C(=O)N[C@@H](CC(C)C)C(=O)N[C@@H](CCCN=C(N)N)C(=O)N[C@@H](CCCCN)C(=O)NCC(=O)N[C@@H](Cc1ccc(O)cc1)C(=O)N[C@@H](CCCCN)C(N)=O"
study_system = "Enterococcus faecium"
outcome_measure = "MIC"
numeric_result = 7.5


---

# collection of MIC values tested on Staphylococcus aureus ATCC BAA-1556
outcome measure: MIC (µM)

[[record]]
molecule_smiles = "CC(C)C[C@H](NC(=O)[C@H](Cc1c[nH]c2ccccc12)NC(=O)[C@H](Cc1c[nH]c2ccccc12)NC(=O)[C@H](CC(C)C)NC(=O)[C@H](Cc1c[nH]c2ccccc12)NC(=O)[C@H](CCCN=C(N)N)NC(=O)[C@H](CC(C)C)NC(=O)[C@H](Cc1c[nH]c2ccccc12)NC(=O)[C@@H](N)Cc1c[nH]c2ccccc12)C(N)=O"
outcome_measure = "MIC"
measurement_unit = "µM"
censor_symbol = "="
numeric_result = 6.25

[[record]]
molecule_smiles = "CC[C@H](C)[C@H](NC(=O)[C@H](Cc1c[nH]c2ccccc12)NC(=O)[C@H](CCCN=C(N)N)NC(=O)[C@H](C)NC(=O)[C@H](Cc1c[nH]c2ccccc12)NC(=O)[C@@H](N)CCCCN)C(=O)N[C@@H](CCCN=C(N)N)C(=O)N[C@@H](Cc1c[nH]c2ccccc12)C(=O)N[C@@H](CC(C)C)C(N)=O"
outcome_measure = "MIC"
measurement_unit = "µM"
censor_symbol = "="
numeric_result = 12.5

[[record]]
molecule_smiles = "CC(C)C[C@H](NC(=O)[C@H](CC(C)C)NC(=O)[C@H](CCCCN)NC(=O)[C@H](CCCCN)NC(=O)[C@H](CC(C)C)NC(=O)[C@H](CC(C)C)NC(=O)[C@H](CC(C)C)NC(=O)[C@H](CC(C)C)NC(=O)[C@@H](N)CC(C)C)C(N)=O"
outcome_measure = "MIC"
measurement_unit = "µM"
censor_symbol = "≥"
numeric_result = 100

[[record]]
molecule_smiles = "CC[C@H](C)[C@H](NC(=O)[C@H](Cc1c[nH]c2ccccc12)NC(=O)[C@H](CCCN=C(N)N)NC(=O)[C@H](CCCN=C(N)N)NC(=O)[C@H](Cc1c[nH]c2ccccc12)NC(=O)[C@@H](N)CCCCN)C(=O)N[C@@H](CCCN=C(N)N)C(=O)N[C@@H](Cc1c[nH]c2ccccc12)C(=O)N[C@@H](C)C(N)=O"
outcome_measure = "MIC"
measurement_unit = "µM"
censor_symbol = "="
numeric_result = 12.5

[[record]]
molecule_smiles = "CC(C)C[C@H](NC(=O)[C@H](CC(C)C)NC(=O)[C@H](CC(C)C)NC(=O)[C@H](CC(C)C)NC(=O)[C@H](CC(C)C)NC(=O)[C@H](CC(C)C)NC(=O)[C@H](CCCCN)NC(=O)[C@H](CC(C)C)NC(=O)[C@@H](N)CCCCN)C(N)=O"
outcome_measure = "MIC"
measurement_unit = "µM"
censor_symbol = "≥"
numeric_result = 100

[[record]]
molecule_smiles = "CC(C)C[C@H](NC(=O)[C@H](Cc1c[nH]c2ccccc12)NC(=O)[C@H](Cc1c[nH]c2ccccc12)NC(=O)[C@H](CC(C)C)NC(=O)[C@H](Cc1c[nH]c2ccccc12)NC(=O)[C@H](Cc1c[nH]c2ccccc12)NC(=O)[C@H](CC(C)C)NC(=O)[C@H](Cc1c[nH]c2ccccc12)NC(=O)[C@@H](N)Cc1c[nH]c2ccccc12)C(N)=O"
outcome_measure = "MIC"
measurement_unit = "µM"
censor_symbol = "≥"
numeric_result = 100

